Organism: Rattus norvegicus
Assay: DrugMatrix - Regimen: Daily Repeat
Type: toxicity, organism-based, Sprague-Dawley
Parameters: regimen Daily Repeat, gender Male, age 6-8 weeks
Details: in vivo, ip, 2 mg/kg, […], tissue Blood, route intraperitoneal, dose level High, time 28 day, vehicle 100 % SALINE
experimental.readout: ABSOLUTE EOSINOPHIL (cells/µL)
Answers are plain numbers, in cells/µL.

Consider CADMIUM DICHLORIDE . Its measured ABSOLUTE EOSINOPHIL is 150

* * *

Species: Rattus norvegicus
Assay: DrugMatrix - Regimen: Daily Repeat
Assay type: toxicity, organism-based, Sprague-Dawley
Set-up: regimen Daily Repeat, gender Male, age 6-8 weeks
Conditions: in vivo, po, 10 mg/kg, 120 h, tissue Plasma, route oral GAVAGE, dose level Low, time 5 day, […]
experimental.readout: BLOOD UREA NITROGEN (mg/dL)
Numbers only, in mg/dL.

Consider the following illustrative entries.
COc1ccc2cc([C@H](C)C(=O)O)ccc2c1; 8.33
COCCOC(=O)C1=C(C)NC(C)=C(C(=O)OC(C)C)C1c1cccc([N+](=O)[O-])c1 (centres undefined); 15
CCOC(=O)C1=C(C)NC(C)=C(C(=O)OC)C1c1cccc([N+](=O)[O-])c1 (centres undefined); 15

--- query ---
Consider CC(C)CC(N(C)C)C1(c2ccc(Cl)cc2)CCC1 (centres undefined) . Its measured BLOOD UREA NITROGEN is 14

* * *

Species: Rattus norvegicus
Experiment: DrugMatrix - Regimen: Daily Repeat
Type: toxicity, organism-based, Sprague-Dawley
Design: regimen Daily Repeat, gender Male, age 6-8 weeks
Conditions: in vivo, ip, 0 mg/kg, […], tissue Blood, route intraperitoneal, dose level Control, time 14 day, vehicle 100 % SALINE
experimental.readout: ABSOLUTE MONOCYTE
Kindly report the value followed by its unit.

Consider CCN[C@@H]1C[C@H](N)[C@@H](O[C@H]2OC(CN)=CC[C@H]2N)[C@H](O)[C@H]1O[C@H]1OC[C@](C)(O)[C@H](NC)[C@H]1O . Its measured ABSOLUTE MONOCYTE is 400 cells/µL

* * *

Species: Rattus norvegicus
Test: DrugMatrix - Regimen: Daily Repeat
Type: toxicity, organism-based, Sprague-Dawley
Design: regimen Daily Repeat, gender Male, age 6-8 weeks
Conditions: in vivo, po, 0 mg/kg, 72 h, tissue Blood, route oral GAVAGE, dose level Control, time 3 day, […]
experimental.readout: MEAN CORPUSCULAR HEMOGLOBIN CONCENTRATION

Consider the following illustrative entries.
C[C@H]1O[C@@H](O[C@H]2[C@@H](O)C[C@H](O[C@H]3[C@@H](O)C[C@H](O[C@H]4CC[C@@]5(C)[C@H](CC[C@@H]6[C@@H]5CC[C@]5(C)[C@@H](C7=CC(=O)OC7)CC[C@]65O)C4)O[C@@H]3C)O[C@@H]2C)C[C@H](O)[C@@H]1O [DIGITOXIN]; 39.05 G/DL
S=C=Nc1cccc2ccccc12 [1-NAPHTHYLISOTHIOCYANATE]; 37.05 G/DL
CCOC(=O)C1=C(C)NC(C)=C(C(=O)OC)C1c1cccc([N+](=O)[O-])c1 (stereo not given) [NITRENDIPINE]; 39.03 G/DL

Go through the list and state MEAN CORPUSCULAR HEMOGLOBIN CONCENTRATION for each entry.
1. CC(C)(Oc1ccc(C2CCCc3ccccc32)cc1)C(=O)O (stereo not given) [NAFENOPIN]
2. CC(=O)Nc1cccc(O)c1 [METACETAMOL]
3. COCCOC(=O)C1=C(C)NC(C)=C(C(=O)OC(C)C)C1c1cccc([N+](=O)[O-])c1 (stereo not given) [NIMODIPINE]
4. COc1ccc2[nH]c([S+]([O-])Cc3ncc(C)c(OC)c3C)nc2c1 (stereo not given) [OMEPRAZOLE]
5. CC(C)Cc1ccc(C(C)C(=O)O)cc1 (stereo not given) [IBUPROFEN]

RESULT:
1: 37.37 G/DL; 2: 39.82 G/DL; 3: 39.03 G/DL; 4: 38.52 G/DL; 5: 39.83 G/DL

Go through the list and state MEAN CORPUSCULAR HEMOGLOBIN CONCENTRATION for each entry.
1. CC(=O)Nc1ccc(O)cc1 [ACETAMINOPHEN]
2. CCOC(=O)C(C)(C)Oc1ccc(Cl)cc1 [CLOFIBRATE]

RESULT:
1: 39.62 G/DL; 2: 39.77 G/DL

Go through the list and state MEAN CORPUSCULAR HEMOGLOBIN CONCENTRATION for each entry.
1. Clc1ccc(Cl)cc1 [1,4-DICHLOROBENZENE]
2. CC/C(=C(/CC)c1ccc(O)cc1)c1ccc(O)cc1 [DIETHYLSTILBESTROL]
3. C[C@]12CC[C@@H]3c4ccc(O)cc4CC[C@H]3[C@@H]1CC[C@@H]2O [ESTRADIOL]
4. O=C(O)Cc1ccccc1Nc1c(Cl)cccc1Cl [DICLOFENAC]

RESULT:
1: 31.13 G/DL; 2: 39.85 G/DL; 3: 37.92 G/DL; 4: 39.03 G/DL

Consider Cc1cccc(Nc2ccncc2S(=O)(=O)NC(=O)NC(C)C)c1 [TORSEMIDE] . Its measured MEAN CORPUSCULAR HEMOGLOBIN CONCENTRATION is 37.92 G/DL

* * *

Organism: Rattus norvegicus
Test: DrugMatrix - Regimen: Daily Repeat
Type: toxicity, organism-based, Sprague-Dawley
Parameters: regimen Daily Repeat, gender Male, age 6-8 weeks
Conditions: in vivo, po, 0 mg/kg, 72 h, tissue Plasma, route oral GAVAGE, dose level Control, time 3 day, vehicle 100 % WATER
Task for the reader: assign each of the following compounds its reported SODIUM.
Numbers only, in MEQ/L.

Consider the following illustrative entries.
CC(C)NCC(O)COc1cccc2ccccc12 (stereo not given); 144.27
ClC(Cl)Cl [CHLOROFORM]; 144.43
CC(C)C[C@H](NC(=O)[C@@H](O)[C@H](N)Cc1ccccc1)C(=O)O; 143.9

Go through the list and state SODIUM for each entry.
1. COC(=O)C1=C(C)NC(C)=C(C(=O)OCC(C)C)C1c1ccccc1[N+](=O)[O-] (stereo not given)
2. C[N+](C)(C)CCO.[Cl-] [CHOLINE CHLORIDE]

RESULT:
1. 147.02
2. 142.53

* * *

Task for the reader: assign each of the following compounds its reported MEAN CORPUSCULAR HEMOGLOBIN.
Species: Rattus norvegicus
Test: DrugMatrix - Regimen: Daily Repeat
Assay type: toxicity, organism-based, Sprague-Dawley
Design: regimen Daily Repeat, gender Male, age 6-8 weeks
Conditions: in vivo, po, 0 mg/kg, 72 h, tissue Blood, route oral GAVAGE, dose level Control, time 3 day, […]
Answers are plain numbers, in pg.

Consider the following illustrative entries.
CC(=O)Nc1cccc(O)c1; 24.47
CC(C)(Oc1ccc(C2CCCc3ccccc32)cc1)C(=O)O (configuration not stated); 23.2
C[C@H]1O[C@@H](O[C@H]2[C@@H](O)C[C@H](O[C@H]3[C@@H](O)C[C@H](O[C@H]4CC[C@@]5(C)[C@H](CC[C@@H]6[C@@H]5CC[C@]5(C)[C@@H](C7=CC(=O)OC7)CC[C@]65O)C4)O[C@@H]3C)O[C@@H]2C)C[C@H](O)[C@@H]1O; 24.37
CCCCCCCCc1ccc(O)cc1; 23.93
CC/C(=C(/CC)c1ccc(O)cc1)c1ccc(O)cc1; 25.37
S=C=Nc1cccc2ccccc12 [1-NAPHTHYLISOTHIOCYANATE]; 24.3

--- query ---
Consider CC(=O)Nc1ccc(O)cc1 . Its measured MEAN CORPUSCULAR HEMOGLOBIN is 24.97

* * *

Task for the reader: assign each of the following compounds its reported URIC ACID.
Species on record: Rattus norvegicus
Assay: DrugMatrix - Regimen: Daily Repeat
Type: toxicity, organism-based, Sprague-Dawley
Design: regimen Daily Repeat, gender Male, age 6-8 weeks
Conditions: in vivo, po, 0 mg/kg, 120 h, tissue Plasma, route oral GAVAGE, dose level Control, time 5 day, vehicle .5 % CMC
Answers are plain numbers, in mg/dL.

Clc1ccc2c(c1)C(N1CCNCC1)=Nc1ccccc1O2 [AMOXAPINE]; 1.63
OC(CCN1CCCCC1)(c1ccccc1)C1CCCCC1 (stereo not given) [TRIHEXYPHENIDYL]; 1.98
C[C@]1(Cn2ccnn2)[C@H](C(=O)O)N2C(=O)C[C@H]2S1(=O)=O [TAZOBACTAM]; 1.83
O=[N+]([O-])c1ccccc1 [NITROBENZENE]; 1.57

--- query ---
Consider CNC(=C[N+](=O)[O-])NCCSCc1ccc(CN(C)C)o1 [RANITIDINE] . Its measured URIC ACID is 1.67

* * *

Species: Rattus norvegicus
Experiment: DrugMatrix - Regimen: Daily Repeat
Format: toxicity, organism-based, Sprague-Dawley
Design: regimen Daily Repeat, gender Male, age 6-8 weeks
Conditions: in vivo, po, 1500 mg/kg, 120 h, tissue Plasma, route oral GAVAGE, dose level High, time 5 day, vehicle .5 % CMC
Task for the reader: assign each of the following compounds its reported ASPARTATE AMINOTRANSFERASE.
Kindly report the value followed by its unit.

O=C(N[C@H](CO)[C@H](O)c1ccc([N+](=O)[O-])cc1)C(Cl)Cl; 100.33 u/L
CNC(=C[N+](=O)[O-])NCCSCc1ccc(CN(C)C)o1; 93.67 u/L
CO[C@H]1/C=C/O[C@@]2(C)Oc3c(C)c(O)c4c(c3C2=O)C2=NC3(CCN(CC(C)C)CC3)NC2=C(NC(=O)/C(C)=C\C=C\[C@H](C)[C@H](O)[C@@H](C)[C@@H](O)[C@@H](C)[C@H](OC(C)=O)[C@@H]1C)C4=O; 198.5 u/L
C[C@]1(Cn2ccnn2)[C@H](C(=O)O)N2C(=O)C[C@H]2S1(=O)=O; 76 u/L
NC(=O)c1cnccn1 [PYRAZINAMIDE]; 93.33 u/L
Cc1ccc(S(=O)(=O)NC(=O)NN2CC3CCCC3C2)cc1 (configuration not stated) [GLICLAZIDE]; 93 u/L

Consider Cc1cc(=O)n(-c2ccccc2)n1C [ANTIPYRINE] . Its measured ASPARTATE AMINOTRANSFERASE is 86 u/L
